biological target: T1, human native CD3 on live cells (HuT78, Jurkat) (human, UniProt P07766 23-207; P09693 23-182; P04234 22-171); assay: FACS, HuT78 cells
T1 construct: whole, on cells; also called human CD3
T1 sequence (P07766 23-207, chain 1 of 3): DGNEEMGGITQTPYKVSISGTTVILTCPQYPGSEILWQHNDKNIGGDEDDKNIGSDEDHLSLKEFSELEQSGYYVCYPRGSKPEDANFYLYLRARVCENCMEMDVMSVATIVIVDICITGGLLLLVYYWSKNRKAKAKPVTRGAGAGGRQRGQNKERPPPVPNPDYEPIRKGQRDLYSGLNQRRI
T1 sequence (P09693 23-182, chain 2 of 3): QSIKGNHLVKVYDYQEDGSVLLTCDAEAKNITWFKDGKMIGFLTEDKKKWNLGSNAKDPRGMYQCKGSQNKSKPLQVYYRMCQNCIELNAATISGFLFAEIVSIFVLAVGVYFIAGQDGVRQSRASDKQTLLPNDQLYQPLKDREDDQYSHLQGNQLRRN
T1 sequence (P04234 22-171, chain 3 of 3): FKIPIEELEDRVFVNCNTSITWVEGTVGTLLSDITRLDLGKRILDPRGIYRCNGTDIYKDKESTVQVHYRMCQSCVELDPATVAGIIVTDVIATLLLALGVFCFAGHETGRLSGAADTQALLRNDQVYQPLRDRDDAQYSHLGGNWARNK
Quick list: EC50 per entry.
Record the value in nM, omitting the unit from your answer.

# count of solved cases: 3
binder	EC50 / nM
humanized sp34 BG53P (antibody, V domains shown, also called hu-sp34) VH: EVQLVESGGGLVQPGGSLRLSCAASGFTFNTYAMNWVRQAPGKGLEWVARIRSKYNNYATYYADSVKDRFTISRDDAKSSLYLQMNSLRAEDTAMYYCVRHGNFGNSYVSWFAYWGQGTLVTVSS VL: QAVVTQSPATLSVSPGERATLSCRSSTGAVTTSNYANWVQEKPGQLFTGLIGGTNKRAPGIPARFSGSLSGDEATLTISSLQSEDFAIYFCALWYSNLWVFGGGTKVEIK	1.8
chimeric sp34 (ch-sp34) (antibody, V domains shown) VH: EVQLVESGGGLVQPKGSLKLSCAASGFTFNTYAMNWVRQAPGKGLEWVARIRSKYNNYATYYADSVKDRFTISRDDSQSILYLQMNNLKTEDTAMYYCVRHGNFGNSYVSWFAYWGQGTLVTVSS VL: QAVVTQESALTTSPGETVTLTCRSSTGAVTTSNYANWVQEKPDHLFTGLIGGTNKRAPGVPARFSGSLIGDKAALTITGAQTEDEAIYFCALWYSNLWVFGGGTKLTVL	1.9
humanized sp34 scFv BG561P (scFv-Fc) (Fc fusion, scFv (VH-3xG4S-VK) fused to N-terminus of a human IgG1 Fc region; also called scFv-ized BG56P; not shown: human IgG1 Fc region, scFv fused to its N-terminus) scFv: EVQLVESGGGLVQPGGSLRLSCAASGFTFNTYAMNWVRQAPGKGLEWVARIRSKYNNYATYYADSVKDRFTISRDDAKNSLYLQMNSLRAEDTAVYYCVRHGNFGNSYVSWFAYWGQGTLVTVSSGGGGSGGGGSGGGGSEIVLTQSPATLSVSPGERATLSCRSSTGAVTTSNYANWVQQKPGQAPRGLIGGTNKRAPGIPARFSGSLSGDEATLTISSLQSEDFAVYYCALWYSNLWVFGGGTKVEIK	4.35

Let us move to another entry and its EC50.
q: // lookup EC50 for humanized sp34 BG56P (antibody, V domains shown) VH: EVQLVESGGGLVQPGGSLRLSCAASGFTFNTYAMNWVRQAPGKGLEWVARIRSKYNNYATYYADSVKDRFTISRDDAKNSLYLQMNSLRAEDTAVYYCVRHGNFGNSYVSWFAYWGQGTLVTVSS VL: EIVLTQSPATLSVSPGERATLSCRSSTGAVTTSNYANWVQQKPGQAPRGLIGGTNKRAPGIPARFSGSLSGDEATLTISSLQSEDFAVYYCALWYSNLWVFGGGTKVEIK
a: 4.69
